tested on: NCI-H522 lung; experiment: NCI tumour cell line growth inhibition, 48 h
measuredQuantity: TGI (µM)
Lab book: enter the figure in µM, no units written.

compound: COc1ccc(-c2nc(-c3nc4ccc(C)cc4[nH]3)cc3c2[nH]c2ccccc23)cc1
TGI / µM: 42.1
//
compound: COc1ccc(-c2cncn2-c2cc(OC)c(OC)c(OC)c2)cc1
TGI / µM: 0.283
//
compound: NC1c2ccccc2Nc2ccccc21
TGI / µM: 5.2
//
compound: CCOC(=O)C(Cc1ccc(N(CCCl)CCCl)cc1)NC(=O)C(Cc1ccccc1)NC=O (stereo unspecified)
TGI / µM: 0.167

Input: Notebook entry, NCI-H522 lung assay: TGI of CCCCCCCC1(c2ccc(N)cc2)CCC(=O)NC1=O (stereo unspecified) = ?
Output: 78.6

Input: Another compound: `CC(=O)N1CCN(CCNC(=O)n2cc(-c3ccncc3)c(-c3cc(O)cc(Cl)c3)n2)CC1`
Output: 34.1

Input: Another compound: `C1CN(c2nnc(N3CCC3)nn2)C1`
Output: 85.2
